Attribution: PubChem BioAssay AID1259421

Quick list: activity change, negative = inhibition per entry.
# measurementNotes: T. gondii ME49Luc in HeLa cells, luciferase assay, 72 h, no IFN-y (AID 1259421)
# conditionParameters: active compounds read low, concentration not given here
About 610 (9.5%) of roughly 6,400 compounds were called active. Many of the other results were omitted from the sample, so actives are more common in it than they were.
recordedMetric: activity change, negative = inhibition (%)

>>> observedvalue("O=C(O)C1CC(O)CN1 (stereo unspecified)")
-0.806
>>> observedvalue("Cc1c(I)c(=O)n(-c2ccccc2)n1C")
9.68
>>> observedvalue("Clc1ccc2c(N3CCN(CCCN4CCN(c5ccnc6cc(Cl)ccc56)CC4)CC3)ccnc2c1")
1.21
>>> observedvalue("OC[C@@H](O)C(O)[C@@H](O)CO (stereo partly specified)")
8.06
>>> observedvalue("Cc1nnc(-c2ccc3occ(-c4ccc(S(C)=O)cc4)c3c2)o1 (stereo unspecified)")
1.22
>>> observedvalue("Cc1c(N(C)C)c(=O)n(-c2ccccc2)n1C")
13
